Assay: NCI Yeast Anticancer Drug Screen. Data for the bub3 strain (AID 167)
Conditions: S. cerevisiae bub3 mutant strain, at 50.0 µM
Compounds without any hit were thinned out: in the full panel of roughly 79,000, 15% have a hit. Calls of active or inactive are those of the source. Cut-off read from the data, not from the text of the source: active = growth inhibition above about 70%; inactive = the rest. Where a SMILES comes first, the peptide text is derived from it. [ ]: non-standard residue; d: D form. The star is where a group is joined. Nle = CCCC[CH](N)C(=O)O; Cbz = O=C(OCc1ccccc1)*
Pick one: true = active, false = inactive

Cc1[nH]c(=O)nc2nc3ccc(Cl)cc3c(NCCNCCO)c12 | false

Lab log entry: `CCCc1cc(=O)n(CCCc2ccccc2)c(=O)n1CCCc1ccccc1` — outcome as called in the assay?
false

Lab log entry: OC1CCCCC1C1CCCCC1 (stereo unspecified) — outcome as called in the assay?
false

Lab log entry: `COCCOC(=O)CCC(C)=O` — outcome as called in the assay?
false

Lab log entry: COc1ccc2c(c1)C1(C)CCCC(C)(C=O)C1CC2 (stereo unspecified) — outcome as called in the assay?
false

Lab log entry: `O=C(Nc1ccccc1)c1nccc2ccccc12` — outcome as called in the assay?
false

Lab log entry: `CC(=O)Nc1cc(CN2CCCCC2)c(O)c2ncccc12` — outcome as called in the assay?
false

Lab log entry: `CCCCCCCCCCc1ccc(CCCCCCCCCC)cc1` — outcome as called in the assay?
false

Lab log entry: O=C(Nc1ccc(Cl)cc1)OC(C(=O)c1ccccn1)c1ccccn1 (stereo unspecified) — outcome as called in the assay?
false

Lab log entry: CNC(=O)CCC(NC(=O)OC(C)(C)C)C(=O)NC(Cc1ccc(NC(=O)CCCCC(C)=O)cc1)C(=O)NCC(=O)NC (stereo unspecified) — outcome as called in the assay?
false

Lab log entry: `O=C1c2ccccc2C(=O)N1C1CCCCC1` — outcome as called in the assay?
false

Lab log entry: `C/C(C/C(C)=N/C(N)=S)=N\C(N)=S` — outcome as called in the assay?
false

Lab log entry: `Cn1c(=O)c2ncn(Cc3ccccc3)c2n(C)c1=O` — outcome as called in the assay?
false

Lab log entry: CC1(O)CCC2CC1C2(C)CO (stereo unspecified) — outcome as called in the assay?
false

Lab log entry: `CCN(CC)CCCNc1ccc2ncn3c4ccc(O)cc4c(=O)c1c23` — outcome as called in the assay?
false

Lab log entry: CCCCC(NC(=O)C(Cc1ccccc1)NC(=O)OCc1ccccc1)C(=O)O (stereo not drawn) (Cbz-Phe-[Nle]-OH; configuration not given here) — outcome as called in the assay?
false

Lab log entry: O=C1C2C3CCC(C3)C2C(=O)N1CCO (stereo unspecified) — outcome as called in the assay?
false

----------
Entries and their growth inhibition values follow.
Assay: NCI Yeast Anticancer Drug Screen. Data for the cln2 rad14 strain (AID 165);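 note: 0% = growth equal to vehicle treated cultures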
Conditions: S. cerevisiae cln2 rad14 strain, at 50.0 µM, hits give high values
About 79,000 compounds went through this panel and 15% of them were active in at least one assay; those are over-represented in the sample as a whole.
# output: bare number, implied unit %

COc1ccc2c(c1)OC[C@@H]1c3cc(NS(=O)(=O)c4ccccc4)cc(OC)c3O[C@H]21 | 30.3

The compound identified as `NCCNc1ncnc2ccccc12` registered its growth inhibition at -11.6

The compound identified as `CCOC(=O)N1CCN(Cc2cc(=O)n3cc(C)ccc3n2)CC1` registered its growth inhibition at 16.2

The compound identified as CN(C)C1=c2c(=O)n(C)c(=O)n(C)c2=NC2C=CC=CN12 (stereo not drawn) registered its growth inhibition at 4.15

The compound identified as O=C(O)C1CCCCC1O (stereo not drawn) registered its growth inhibition at 23.3

The compound identified as `C=CCSc1nc2ccc(NC(C)=O)cc2s1` registered its growth inhibition at 19.3

The compound identified as `C[n+]1ccccc1/C=C/c1csc2ccccc12` registered its growth inhibition at -11.8

The compound identified as `Oc1ccc2ccccc2c1C=NCCS` registered its growth inhibition at -25.6

The compound identified as `Cc1ccccc1-[n+]1noc(N)n1` registered its growth inhibition at 3.85

The compound identified as `[Br][Pt+2][Br].[NH-]c1cccc(F)c1.[NH-]c1cccc(F)c1` registered its growth inhibition at 6.4

The compound identified as `O=C1NC(=S)N(c2ccccc2)C1=O` registered its growth inhibition at -30.2

The compound identified as `COc1cccc(N(CCO)C2CCCCC2)c1` registered its growth inhibition at 15.7

The compound identified as `C=CCCCCCCCCC(=O)Nc1cc2c3c(c1)CCCN3CCC2` registered its growth inhibition at -13.8
